Entries with reported Ki on D(3) dopamine receptor (Homo sapiens, UniProt P35462)
Sequence (P35462 whole entry, the tested form may be a part): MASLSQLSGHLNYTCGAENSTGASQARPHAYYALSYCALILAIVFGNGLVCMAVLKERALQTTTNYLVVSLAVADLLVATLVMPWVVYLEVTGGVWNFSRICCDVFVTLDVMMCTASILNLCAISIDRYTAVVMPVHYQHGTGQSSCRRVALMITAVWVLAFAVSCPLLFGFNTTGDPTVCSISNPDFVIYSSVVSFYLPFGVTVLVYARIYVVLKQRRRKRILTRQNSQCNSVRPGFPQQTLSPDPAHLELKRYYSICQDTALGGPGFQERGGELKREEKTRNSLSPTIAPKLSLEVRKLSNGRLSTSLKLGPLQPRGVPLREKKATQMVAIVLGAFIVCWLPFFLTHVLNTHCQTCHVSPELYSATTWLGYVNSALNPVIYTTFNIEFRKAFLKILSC
Numbers only; they are read as µM.

// known answers, use as guide
FC(F)(F)c1cccc(N2CCN(CCCOC3(c4ccccn4)CCOC4(CCCC4)C3)CC2)n1 (centres undefined) :: 0.286
CN(C)C(=O)C(CCN1C[C@H](F)C[C@H]1C(=O)NCCCCN1CCN(c2nsc3ccccc23)CC1)(c1ccccc1)c1ccccc1 :: 0.053
Clc1ccc([C@@H]2C[C@H]2NCCC2(c3ccccn3)CCOC3(CCCC3)C2)cc1 (relative stereo) :: 0.361

# next compound below
Lab book: Ki of Fc1cncc(CNCC[C@@]2(c3ccccn3)CCOC3(CCCC3)C2)c1 noted as 85.1

---

Biological target: D(3) dopamine receptor (Homo sapiens)
Assay: Antagonist activity at SNAP-tagged human D3R receptor transfected in HEK293T cells coexpressing wild type Galpha-oA, venus-tagged Gbeta-1 (156 to 239 residues), venus-tagged Ggamma2 (1 to 155 residues) and Rluc8 fused masGRK3ct assessed as Galpha-oA activation using coelenterazine as substrate incubated for 40 mins in presence of quinpirole by BRET based GPA assay
Assay type: functional, cell-based
pEC50 values for the compounds below.
Expect pEC50 as a plain number equal to -log10 of the molar concentration.

Clc1ccc([C@@H]2C[C@H]2NCCC2(c3ccccn3)CCOC3(CCCC3)C2)cc1 (relative stereo) :: 6.57

# next compound below
Lab book: pEC50 of CN(C)C(=O)C(CCN1C[C@H](F)C[C@H]1C(=O)NCCCCN1CCN(c2nsc3ccccc23)CC1)(c1ccccc1)c1ccccc1 noted as 7.04

---

Molecular target: Mu-type opioid receptor (Mus musculus, UniProt P42866)
Sequence (P42866 whole entry, the tested form may be a part): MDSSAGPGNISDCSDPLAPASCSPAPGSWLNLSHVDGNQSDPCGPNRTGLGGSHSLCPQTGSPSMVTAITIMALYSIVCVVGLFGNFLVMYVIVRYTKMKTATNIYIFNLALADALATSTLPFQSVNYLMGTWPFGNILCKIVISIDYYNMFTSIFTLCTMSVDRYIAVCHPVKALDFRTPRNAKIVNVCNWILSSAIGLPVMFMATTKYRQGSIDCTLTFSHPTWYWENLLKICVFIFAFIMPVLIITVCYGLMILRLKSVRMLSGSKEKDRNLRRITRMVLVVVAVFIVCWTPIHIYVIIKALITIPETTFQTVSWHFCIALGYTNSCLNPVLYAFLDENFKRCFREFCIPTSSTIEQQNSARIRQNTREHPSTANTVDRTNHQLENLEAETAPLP
Assay: Agonist activity at Rluc8 fused mouse MOR transfected in HEK293T cells coexpressing wild type GRK2 assessed as arrestin-3 recruitment using coelenterazine as substrate incubated for 40 mins by BRET assay
Assay type: functional, cell-based
PARAMETER: pEC50
Expect pEC50 as a plain number equal to -log10 of the molar concentration.

Clc1ccc([C@@H]2C[C@H]2NCCC2(c3ccccn3)CCOC3(CCCC3)C2)cc1 (relative stereo) :: 6.58

# next molecule below
Lab book: pEC50 of Clc1cccc(N2CCN(CCC3(c4ccccn4)CCOCC3)CC2)c1Cl noted as 5.19

---

Target: UniProtKB P42866
Assay: Agonist activity at Rluc8 fused mouse MOR transfected in HEK293T cells assessed as Nb33 recruitment using coelenterazine as substrate incubated for 40 mins by BRET assay
Type: functional, cell-based
pEC50 values for the molecules below.
Expect pEC50 as a plain number equal to -log10 of the molar concentration.

Clc1cccc(N2CCN(CCC3(c4ccccn4)CCOCC3)CC2)c1Cl :: 5.80

Lab book: pEC50 of Clc1ccc([C@@H]2C[C@H]2NCCC2(c3ccccn3)CCOC3(CCCC3)C2)cc1 (relative stereo) noted as 6.39

---

Target: Mu-type opioid receptor (Mus musculus, UniProt P42866)
Assay: Partial agonist activity at Rluc8 fused mouse MOR transfected in HEK293T cells coexpressing wild type GRK2 assessed as arrestin-3 recruitment using coelenterazine as substrate incubated for 40 mins by BRET assay
Assay type: functional, cell-based
PARAMETER: pEC50
Expect pEC50 as a plain number equal to -log10 of the molar concentration.

Lab book: pEC50 of CN(C)C(=O)C(CCN1CCC(CCN2CCN(c3cccc(Cl)c3Cl)CC2)C1)(c1ccccc1)c1ccccc1 (stereo unspecified) noted as 6.33
